Data credit: ChEMBL document CHEMBL4177739

Reported MIC values for a set of compounds
# Test target: UDP-3-O-acyl-N-acetylglucosamine deacetylase (Escherichia coli K-12) (UniProt P0A725)
# Protocol notes: Inhibition of LpxC in Escherichia coli DH5[alpha] assessed as reduction in microbial growth incubated for 22 hrs by MTT assay
Endpoint: MIC (µg/mL)

Compound: CC(CCc1ccc(-c2ccccc2)cc1)(C(=O)NO)S(C)(=O)=O (racemic)
Endpoint: MIC
Censoring sign: =
Reported value: 0.4
--
Compound: C[C@@H](O)[C@H](NC(=O)c1ccc(C#CC#CC2CC2)cc1OC(F)F)C(=O)NO
Endpoint: MIC
Censoring sign: =
Reported value: 0.31
--
Compound: C[C@@H](O)[C@H](NC(=O)[C@H]1CN(c2ccc(C#Cc3ccccc3)cc2)C(=O)O1)C(=O)NO
Endpoint: MIC
Censoring sign: >
Reported value: 256
--
Compound: C[C@@H](O)[C@H](NC(=O)c1ccc(C#CC#CC2CC2)cc1C#N)C(=O)NO
Endpoint: MIC
Censoring sign: =
Reported value: 40
--
Compound: CC(C)(N)[C@H](NC(=O)c1ccc(C#CC#CC2CC2)cc1O)C(=O)NO
Endpoint: MIC
Censoring sign: =
Reported value: 0.078
--
Compound: C[C@@H](O)[C@H](NS(=O)(=O)c1ccc(C#CC#CC2CC2)cc1)C(=O)NO
Endpoint: MIC
Censoring sign: =
Reported value: 20
--
Compound: CC(C)(N)[C@H](NC(=O)c1ccc(C#CC#CC2CC2)cc1F)C(=O)NO
Endpoint: MIC
Censoring sign: =
Reported value: 0.04
--
Compound: C[C@@H](O)[C@H](NC(=O)c1ccc(C#CC#CC2CC2)cc1)C(=O)NO
Endpoint: MIC
Censoring sign: =
Reported value: 0.024
--
Compound: C[C@@H](O)[C@H](NC(=O)[C@@H]1CN(c2ccc(C#Cc3ccccc3)cc2)C(=O)O1)C(=O)NO
Endpoint: MIC
Censoring sign: >
Reported value: 256

----------
Reported MIC values for a set of compounds
# Test target: UDP-3-O-acyl-N-acetylglucosamine deacetylase (Escherichia coli K-12) (UniProt P0A725)
# Sequence (whole entry): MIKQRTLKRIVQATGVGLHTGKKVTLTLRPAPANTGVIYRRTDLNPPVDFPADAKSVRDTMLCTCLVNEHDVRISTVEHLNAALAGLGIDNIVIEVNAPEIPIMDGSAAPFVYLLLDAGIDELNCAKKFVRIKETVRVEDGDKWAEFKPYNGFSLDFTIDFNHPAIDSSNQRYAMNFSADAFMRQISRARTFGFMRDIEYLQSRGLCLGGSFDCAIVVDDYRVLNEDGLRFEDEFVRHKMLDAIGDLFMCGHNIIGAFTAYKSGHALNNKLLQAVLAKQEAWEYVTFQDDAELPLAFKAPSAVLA
# Protocol notes: Inhibition of LpxC in Escherichia coli DH5[alpha] assessed as reduction in microbial growth incubated for 22 hrs by MTT assay
Endpoint: MIC (µg/mL)

Input smiles: CC(C)(N)[C@H](NC(=O)c1ccc(C#CC#CC2CC2)c(F)c1)C(=O)NO
Unit of measure: µg/mL
Censoring sign: =
Reported value: 0.019

Input smiles: C[C@@H](O)[C@H](NC(=O)c1ccc(C#CC#CC2CC2)c(F)c1)C(=O)NO
Unit of measure: µg/mL
Censoring sign: =
Reported value: 0.31

Input smiles: C[C@@H](O)[C@H](NC(=O)[C@H]1CN(c2ccc(-c3ccccc3)cc2)C(=O)O1)C(=O)NO
Unit of measure: µg/mL
Censoring sign: >
Reported value: 256

Input smiles: CC(C)(N)[C@H](NC(=O)c1ccc(C#CC#CC2CC2)cc1)C(=O)NO
Unit of measure: µg/mL
Censoring sign: =
Reported value: 0.012

Input smiles: C[C@@H](O)[C@H](NC(=O)c1ccc(C#CC#CC2CC2)cc1Cl)C(=O)NO
Unit of measure: µg/mL
Censoring sign: =
Reported value: 0.048

----------
# Test target: UDP-3-O-acyl-N-acetylglucosamine deacetylase (Pseudomonas aeruginosa (strain ATCC 15692 / PAO1 / 1C / PRS 101 / LMG12228))
Reported MIC values for a set of compounds

Compound: C[C@@H](O)[C@H](NC(=O)[C@@H]1CN(c2ccc(C#Cc3ccccc3)cc2)C(=O)O1)C(=O)NO
MIC: > 256 µg/mL
--
Compound: C[C@@H](O)[C@H](NC(=O)[C@@H]1CN(c2ccc(-c3ccccc3)cc2)C(=O)O1)C(=O)NO
MIC: > 256 µg/mL
--
Compound: CC(CCc1ccc(-c2ccccc2)cc1)(C(=O)Nc1ccccc1N)S(C)(=O)=O (stereo unspecified)
MIC: > 256 µg/mL
--
Compound: Cc1cc(C#CC#CC2CC2)ccc1C(=O)N[C@H](C(=O)NO)[C@@H](C)O
MIC: 5 µg/mL
--
Compound: C[C@@H](O)[C@H](NC(=O)c1ccc(C#CC#CC2CC2)c(F)c1)C(=O)NO
MIC: 0.63 µg/mL
--
Compound: C[C@@H](O)[C@@H](CN(O)C=O)NC(=O)c1ccc(C#CC#CC2CC2)cc1
MIC: > 256 µg/mL
--
Compound: C[C@@H](O)[C@H](NC(=O)[C@H]1CN(c2ccc(-c3ccccc3)cc2)C(=O)O1)C(=O)NO
MIC: > 256 µg/mL
--
Compound: C[C@@H](O)[C@H](NC(=O)c1ccc(C#CC#CC2CC2)cn1)C(=O)NO
MIC: 20 µg/mL
--
Compound: C[C@@H](O)[C@H](NC(=O)c1ccc(C#CC#CC2CC2)cc1[N+](=O)[O-])C(=O)NO
MIC: 5 µg/mL
--
Compound: CC(C)(N)[C@H](NC(=O)c1ccc(C#CC#CC2CC2)cc1O)C(=O)NO
MIC: 0.625 µg/mL
--
Compound: C[C@@H](O)[C@H](NC(=O)[C@H]1CN(c2ccc(C#Cc3ccccc3)cc2)C(=O)O1)C(=O)NO
MIC: > 256 µg/mL
